Biological target: T1, MOCS2B p.Leu19Phe variant (human, UniProt O96007 1-188, p.Leu19Phe)
T1 construct: MOCS2B, large subunit of molybdopterin (MPT) synthase, human, patient variant c.57A>T (NM_004531.5; p.Leu19Phe), rs776441627; Variant found in patients (natural variant); Cloned into pET15b; also called MOCS2B L19F; MOCS2B Leu19Phe; source: Escherichia coli BL21 (pET15b), purified (ammonium sulfate precipitation, size exclusion chromatography on Superdex 200)
T1 sequence (looked up): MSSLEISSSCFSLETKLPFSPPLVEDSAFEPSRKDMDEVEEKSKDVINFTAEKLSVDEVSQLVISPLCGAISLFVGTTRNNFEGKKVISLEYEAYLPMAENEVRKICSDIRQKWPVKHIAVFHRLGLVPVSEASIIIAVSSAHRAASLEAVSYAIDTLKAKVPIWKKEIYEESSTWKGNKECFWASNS
Assay: ITC; VP-ITC; 20-50 uM MOCS2B in the sample cell (1.5 mL), 200-500 uM MOCS2A in the syringe; 10 mM Tris-HCl, 250 mM NaCl, pH 8.0; n = 3 experiments
Conditions: both partners purified
pKd: −log10 of the molar value.
binders and their reported pKd
Measurement kind: pKd

Binder: MOCS2A wild-type (small subunit of MPT synthase) (natural protein, human, UniProt O96033 1-88, looked up, thiocarboxylated C-terminal tail, MOCS2A, small subunit of molybdopterin (MPT) synthase, human; encoded by MOCS2 transcript variant 1 (NM_176806.4); also called MOCS2A WT; WT MOCS2A) MVPLCQVEVLYFAKSAEITGVRSETISVPQEIKALQLWKEIETRHPGLADVRNQIIFAVRQEYVELGDQLLVLQPGDEIAVIPPISGG
Value measured: 6.94
//
Binder: MOCS2A p.Ile82Phe variant (natural protein, human, UniProt O96033 1-88, looked up, thiocarboxylated C-terminal tail, MOCS2A, small subunit of molybdopterin (MPT) synthase, human, patient variant c.244A>T (NM_176806.4; p.Ile82Phe), rs776441627; Variant found in patients (natural variant); also called MOCS2A I82F; MOCS2 p.Ile82Phe) MVPLCQVEVLYFAKSAEITGVRSETISVPQEIKALQLWKEIETRHPGLADVRNQIIFAVRQEYVELGDQLLVLQPGDEIAVFPPISGG
Value measured: 5.13

Cited source: paper PMC12289762
